- ASSAY SUMMARY: Lipophilicity, logP of the compound
- PROTOCOL CONDITIONS: octanol/water
Given measured logP, output label 1 if it is greater than or equal to 2 and label 0 if not.

Inquiry: In plain terms: is recorded logP at least 2 for `CN(C)c1cccc2c(S(=O)(=O)N/N=C/c3ccc([18F])cc3)cccc12` ?
Reply text: label 1

Inquiry: Confirm if logP reported for the compound `[18F]c1ccc(OC[C@H]2CCN2)cn1` is 2 or above.
Reply text: label 0

Inquiry: Could you verify whether the entry `[11CH3]n1c2c(c3ccccc31)C[C@@]1(O)[C@H]3Cc4ccc(O)c5c4[C@@]1(CCN3CC1CC1)[C@H]2O5` shows logP of no less than 2?
Reply text: label 1

Inquiry: Would you say `CC(=O)N(Cc1ccccc1OCC[18F])c1ccccc1Oc1ccccc1` shows logP at minimum 2?
Reply text: label 1

Inquiry: Test whether the compound `N#Cc1cc([18F])cc(C#Cc2ccccn2)c1` records logP of 2 or higher.
Reply text: label 1

Inquiry: Textbook exercise: given the entry [11CH3]C(=O)c1ccc2c(c1)CCN(CCCCc1ccccc1)CC2O (configuration not stated) , state whether its logP is greater than or equal to 2.
Reply text: label 1

Inquiry: In plain terms: is recorded logP at least 2 for `Cc1cn([C@H]2C[C@H]([18F])[C@@H](CO)O2)c(=O)[nH]c1=O` ?
Reply text: label 0

Inquiry: Exam item: decide whether the reported logP for `O=S1(=O)c2cc(N3CCN4CCC3CC4)ccc2-c2cccc([18F])c21` is at least 2.
Reply text: label 1

Inquiry: Confirm if logP reported for the compound `C[C@H](c1ccc(Cl)cc1)n1cncc1C(=O)OCC[18F]` is 2 or above.
Reply text: label 1

Inquiry: Please check the record `[18F]c1ccc2cnn(N=C3NCCN3)c2c1` and state if its logP is at or above 2.
Reply text: label 0

Inquiry: I'd appreciate it if you could say whether [18F]c1ccc(C2CC3CCCC2N3)cn1 (single isomer, unassigned; (-)) has logP at least equal to 2.
Reply text: label 0

Inquiry: Quick check: does `C[C@H](c1ccccc1)n1cncc1C(=O)OCC[18F]` have logP greater than or equal to 2?
Reply text: label 0

Inquiry: Given the entry `CC(C)C[C@H](N)[11C](=O)O` , answer whether its logP meets or surpasses 2.
Reply text: label 0

Inquiry: Has `CCN(CCF)C[C@@H]1CN(C(=O)CO[11CH3])CCN1C(=O)Cc1ccc(C)c(C)c1` a recorded logP greater than or equal to 2?
Reply text: label 0

Inquiry: Form field: logP at least 2? Entry: `CCOC(=O)c1ncn2c1CN(C)C(=O)c1cc([18F])ccc1-2`
Reply text: label 0

Inquiry: Quick check: does `CCOC(=O)c1ncn2c1CN([11CH3])C(=O)c1cc(F)ccc1-2` have logP greater than or equal to 2?
Reply text: label 0

Inquiry: Is reported logP greater than or equal to 2 here: `CN([11CH3])Cc1ccccc1Sc1ccc(C#N)cc1N`
Reply text: label 1

Inquiry: Could you verify whether the entry `[18F]c1ccc(-c2nnc(N3CCN4CCC3CC4)o2)cc1` shows logP of no less than 2?
Reply text: label 1

Inquiry: Confirm if logP reported for the compound `C[11CH2]OC(=O)c1cncn1[C@H](C)c1ccccc1` is 2 or above.
Reply text: label 0

Inquiry: Does logP meet or surpass 2 for CN1C2CCCC1C(c1cncc(-c3cccnc3[18F])c1)C2 (configuration not stated) ?
Reply text: label 1

Inquiry: Is logP at least 2? Consider `CN([11CH3])[C@]1(c2ccccc2Cl)CCCCC1=O`
Reply text: label 1

Hello, the source for this data is ChEMBL document CHEMBL5338767, in case you need it.
